target: Bombyx mori EcR (VP16 fusion, CVBE switch construct) (Bombyx mori, UniProt P49881); assay: Z3 Assay (HEK-293 cells with CVBE and 6XEcRE LacZ, β-galactosidase reporter); conditions: HEK293, read-out: Fold Induction, Z3 Assay, 3.3 uM
Sequence (P49881 86-606): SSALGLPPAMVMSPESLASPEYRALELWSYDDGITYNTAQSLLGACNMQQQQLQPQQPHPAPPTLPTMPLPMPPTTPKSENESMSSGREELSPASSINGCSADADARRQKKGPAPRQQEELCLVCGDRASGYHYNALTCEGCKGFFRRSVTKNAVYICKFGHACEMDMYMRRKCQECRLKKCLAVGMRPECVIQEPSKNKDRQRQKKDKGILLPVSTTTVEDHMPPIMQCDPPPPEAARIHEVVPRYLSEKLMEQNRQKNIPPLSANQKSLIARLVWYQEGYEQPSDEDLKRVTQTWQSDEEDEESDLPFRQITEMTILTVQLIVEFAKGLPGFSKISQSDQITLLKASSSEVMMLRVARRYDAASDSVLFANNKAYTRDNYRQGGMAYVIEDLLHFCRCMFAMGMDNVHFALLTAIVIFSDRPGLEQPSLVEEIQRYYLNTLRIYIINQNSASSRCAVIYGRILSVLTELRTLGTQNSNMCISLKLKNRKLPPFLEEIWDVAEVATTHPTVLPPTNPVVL
Sequence (P19793 whole entry partner, the tested form may be a part): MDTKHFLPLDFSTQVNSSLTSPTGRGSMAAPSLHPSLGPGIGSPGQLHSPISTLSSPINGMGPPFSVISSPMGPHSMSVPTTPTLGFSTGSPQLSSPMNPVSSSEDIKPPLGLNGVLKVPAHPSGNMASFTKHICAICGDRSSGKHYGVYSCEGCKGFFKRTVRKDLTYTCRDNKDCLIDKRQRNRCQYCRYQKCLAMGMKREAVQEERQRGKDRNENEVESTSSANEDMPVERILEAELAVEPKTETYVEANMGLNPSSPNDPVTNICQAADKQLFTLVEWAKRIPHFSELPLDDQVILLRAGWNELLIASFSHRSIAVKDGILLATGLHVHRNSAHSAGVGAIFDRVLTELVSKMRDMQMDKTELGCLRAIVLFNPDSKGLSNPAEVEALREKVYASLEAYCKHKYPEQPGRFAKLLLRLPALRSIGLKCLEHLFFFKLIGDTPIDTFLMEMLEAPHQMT
attribute measured: fold induction at 3.3 µM
Note: the reply should be a number with no unit written.

These recorded examples may help you get a feel for the data.
>>> df
                           structure_smiles        attribute_measured  recorded_value
0  COc1cccc(C(=O)NN(C(=O)c2cc(C)cc(C)c2)C(C)(C)C)c1CO  fold induction at 3.3 µM             249
1  CNCc1c(OC)cccc1C(=O)NN(C(=O)c1cc(C)cc(C)c1)C(C)(C)C  fold induction at 3.3 µM               1

The value of fold induction at 3.3 µM recorded for CCc1c(OC)cccc1C(=O)NN(C(=O)c1cc(C)cc(/C=N/NC(N)=O)c1)C(C)(C)C when tested on Bombyx mori EcR (VP16 fusion, CVBE switch construct) (Bombyx mori, UniProt P49881) reads 3

The molecule COc1ccc(C(=O)N(NC(=O)c2ccc3c(c2C)OCCO3)C(C)(C)C)c(OC)n1 , when measured on Bombyx mori EcR (VP16 fusion, CVBE switch construct) (Bombyx mori, UniProt P49881), yielded fold induction at 3.3 µM of 408

The reported Bombyx mori EcR (VP16 fusion, CVBE switch construct) (Bombyx mori, UniProt P49881) fold induction at 3.3 µM of CCc1c(OC)cccc1C(=O)NN(C(=O)c1cc(C)cc(C)c1)C(C)(C)C=O is 391

Tested on Bombyx mori EcR (VP16 fusion, CVBE switch construct) (Bombyx mori, UniProt P49881), the item COc1cccc(C(=O)NN(C(=O)c2cc(C)cc(C)c2)C(C)(C)C)c1CSC showed fold induction at 3.3 µM equal to 33

Short answer on Bombyx mori EcR (VP16 fusion, CVBE switch construct) (Bombyx mori, UniProt P49881) for CCc1c(C(=O)NN(C(=O)c2cc(C)cc(Cl)c2)C(C)(C)C)ccc2c1OCCO2 , fold induction at 3.3 µM: 832

Let me check: COc1cccc(C(=O)NN(C(=O)c2cc(C)cc(C)c2)C(C)(C)C)c1CCl , system Bombyx mori EcR (VP16 fusion, CVBE switch construct) (Bombyx mori, UniProt P49881), measured fold induction at 3.3 µM is 123

Simply: CCc1ccc(C(=O)NN(C(=O)c2cc(C)cc(C)c2)C(C)(C)C)c(F)c1 , Bombyx mori EcR (VP16 fusion, CVBE switch construct) (Bombyx mori, UniProt P49881), fold induction at 3.3 µM = 704
